# Test system: HCI-025 (organoid from a breast cancer xenograft)
# EXPERIMENT_NOTES: CTG-3D luminescence at 96 h relative to day-0 seeding control (ratio to day 0); higher = more growth / less cytotoxicity; PDxO 3D drug screen (set 2), 96 h, CTG-3D normalised to day-0 seeding control.
# CONDITION_PARAMETERS: 625 fM; days in culture: 224
Below: a set of entries, each annotated with reported CTG-3D luminescence at 96 h.

TEST_SMILES | CTG-3D luminescence at 96 h
CC(C)n1nc(-c2ccc3oc(N)nc3c2)c2c(N)ncnc21 | 1.86
O=C(c1cc(Cc2n[nH]c(=O)c3ccccc23)ccc1F)N1CCN(C(=O)C2CC2)CC1 | 1.81
Nc1cc(C(F)(F)F)c(-c2cc(N3CCOCC3)nc(N3CCOCC3)n2)cn1 | 1.69
CO[C@H]1C[C@@H]2CC[C@@H](C)[C@@](O)(O2)C(=O)C(=O)N2CCCC[C@H]2C(=O)O[C@H]([C@H](C)C[C@@H]2CC[C@@H](OCCO)[C@H](OC)C2)CC(=O)[C@H](C)/C=C(\C)[C@@H](O)[C@@H](OC)C(=O)[C@H](C)C[C@H](C)/C=C/C=C/C=C/1C | 1.74
CCOc1ccn(-c2ccc(F)cc2)c(=O)c1C(=O)Nc1ccc(Oc2ccnc(N)c2Cl)c(F)c1 | 1.86

---

# Tested on: HCI-024 (organoid from a breast cancer xenograft)
# EXPERIMENT_NOTES: CTG-3D luminescence at 96 h relative to day-0 seeding control (ratio to day 0); higher = more growth / less cytotoxicity; PDxO 3D drug screen, 96 h, CTG-3D normalised to day-0 seeding control.
# CONDITION_PARAMETERS: 0.00025 µM; days in culture: 163
Respond with T for CTG-3D luminescence at 96 h values of 2 and above, F for values below.

MOLECULE | CLASS_ASSIGNMENT
CN(Cc1cnc2nc(N)nc(N)c2n1)c1ccc(C(=O)N[C@@H](CCC(=O)O)C(=O)O)cc1 [methotrexate] | T
Nc1ccn([C@@H]2O[C@H](CO)[C@@H](O)C2(F)F)c(=O)n1 | F
COc1cc2c(Oc3ccc4[nH]c(C)cc4c3F)ncnc2cc1OCCCN1CCCC1 | T
C[C@H](NC(=O)CCC(F)(F)F)C(=O)N[C@@H]1C(=O)N(CCO)c2ncccc2-c2ccccc21 | T
C=CC(=O)N1CCC[C@@H](n2nc(-c3ccc(Oc4ccccc4)cc3)c3c(N)ncnc32)C1 | T
NC(=O)c1cccc2cn(-c3ccc([C@@H]4CCCNC4)cc3)nc12 | F

---

# System: HCI-010 (organoid from a breast cancer xenograft)
# EXPERIMENT_NOTES: CTG-3D luminescence at 96 h relative to day-0 seeding control (ratio to day 0); higher = more growth / less cytotoxicity; PDxO 3D drug screen, 96 h, CTG-3D normalised to day-0 seeding control.
# CONDITION_PARAMETERS: 0.005 µM; days in culture: 65
Below: a set of entries, each annotated with reported CTG-3D luminescence at 96 h.
ENDPOINT: CTG-3D luminescence at 96 h

COMPOUND | REPORTED_MEASUREMENT
CCN1CCN(Cc2ccc(Nc3ncc(F)c(-c4cc(F)c5nc(C)n(C(C)C)c5c4)n3)nc2)CC1 | 2.02
O=C(O)C1(C(=O)O)CCC1.[NH2-].[NH2-].[Pt+2] | 1.74
CC(C)(C(=O)NCC(F)(F)C(F)(F)F)C(=O)N[C@@H]1C(=O)Nc2ccccc2-c2ccccc21 | 1.85
Cc1cc(Nc2ncc(Cl)c(Nc3ccccc3S(=O)(=O)C(C)C)n2)c(OC(C)C)cc1C1CCNCC1 | 1.79
C[C@]12CC[C@@H]3c4ccc(O)cc4C[C@@H](CCCCCCCCC[S+]([O-])CCCC(F)(F)C(F)(F)F)[C@H]3[C@@H]1CC[C@@H]2O (stereo partly drawn) | 1.86
Cc1nc(-c2cn3c(n2)-c2ccc(-c4cnn(C(C)(C)C(N)=O)c4)cc2OCC3)n(C(C)C)n1 | 1.88
CCN(c1cc(C#CCN2CCOCC2)cc(C(=O)NCc2c(C)cc(C)[nH]c2=O)c1C)[C@H]1CC[C@H](N(C)CCOC)CC1 | 1.72
O=C(c1ccc(F)c(F)c1Nc1ccc(I)cc1F)N1CC(O)([C@@H]2CCCCN2)C1 | 1.83
C=CC(=O)N1CCC[C@@H](n2nc(-c3ccc(Oc4ccccc4)cc3)c3c(N)ncnc32)C1 | 1.79
COc1cccc2c1C(=O)c1c(O)c3c(c(O)c1C2=O)C[C@@](O)(C(=O)CO)C[C@@H]3O[C@H]1C[C@H](N)[C@H](O)[C@H](C)O1 | 1.8
NC1(C(=O)N[C@@H](CCO)c2ccc(Cl)cc2)CCN(c2nc[nH]c3nccc2-3)CC1 | 1.93
CNC(=O)c1cccc(-c2ccc3c(N4CCOC[C@@H]4C)nc(N4CCOC[C@@H]4C)nc3n2)c1 | 1.69
COc1cc2c(Oc3ccc4[nH]c(C)cc4c3F)ncnc2cc1OCCCN1CCCC1 | 1.76

---

# Tested on: HCI-025
# EXPERIMENT_NOTES: CTG-3D luminescence at 96 h relative to day-0 seeding control (ratio to day 0); higher = more growth / less cytotoxicity; PDxO 3D drug screen, 96 h, CTG-3D normalised to day-0 seeding control.
# CONDITION_PARAMETERS: 0.00025 µM; days in culture: 209

MOLECULE | CTG-3D luminescence at 96 h
CN(Cc1cnc2nc(N)nc(N)c2n1)c1ccc(C(=O)N[C@@H](CCC(=O)O)C(=O)O)cc1 [methotrexate] | 1.56
CCN(c1cc(C#CCN2CCOCC2)cc(C(=O)NCc2c(C)cc(C)[nH]c2=O)c1C)[C@H]1CC[C@H](N(C)CCOC)CC1 | 3.04
Cc1cc(Nc2ncnc3ccc(NC4=NC(C)(C)CO4)cc23)ccc1Oc1ccn2ncnc2c1 | 2.11

---

# Tested on: HCI-010
# EXPERIMENT_NOTES: CTG-3D luminescence at 96 h relative to day-0 seeding control (ratio to day 0); higher = more growth / less cytotoxicity; PDxO 3D drug screen, 96 h, CTG-3D normalised to day-0 seeding control.
# CONDITION_PARAMETERS: 12.5 pM; days in culture: 52

TEST_SMILES | CTG-3D luminescence at 96 h
CC1(C)CCC(c2ccc(Cl)cc2)=C(CN2CCN(c3ccc(C(=O)NS(=O)(=O)c4ccc(N[C@H](CCN5CCOCC5)CSc5ccccc5)c(S(=O)(=O)C(F)(F)F)c4)cc3)CC2)C1 | 2.01
CC(C)(C(=O)NCC(F)(F)C(F)(F)F)C(=O)N[C@@H]1C(=O)Nc2ccccc2-c2ccccc21 | 2.08
COc1cc2c(Oc3ccc4[nH]c(C)cc4c3F)ncnc2cc1OCCCN1CCCC1 | 1.94
C[C@@H]1COCCN1c1cc(C2([S@](C)(=N)=O)CC2)nc(-c2cc[nH]c3nccc2-3)n1 | 2.13
O=C(c1ccc(F)c(F)c1Nc1ccc(I)cc1F)N1CC(O)([C@@H]2CCCCN2)C1 | 2.3
NC(=O)Nc1cc(-c2cccc(F)c2)sc1C(=O)N[C@H]1CCCNC1 | 2.15

---

Below: a set of entries, each annotated with reported CTG-3D luminescence at 96 h.
# Tested on: HCI-017.E2 (organoid from an ER-positive breast cancer xenograft)
# EXPERIMENT_NOTES: CTG-3D luminescence at 96 h relative to day-0 seeding control (ratio to day 0); higher = more growth / less cytotoxicity; PDxO 3D drug screen, 96 h, CTG-3D normalised to day-0 seeding control.
# CONDITION_PARAMETERS: 0.00025 µM

TEST_SMILES | TARGET | CTG-3D luminescence at 96 h
C[C@@H]1COCCN1c1cc(C2([S@](C)(=N)=O)CC2)nc(-c2cc[nH]c3nccc2-3)n1 | HCI-017.E2 | 2.28
O=C(/C=C/c1cccnc1)NCCCCC1CCN(C(=O)c2ccccc2)CC1 | HCI-017.E2 | 1.98
CCN(c1cc(C#CCN2CCOCC2)cc(C(=O)NCc2c(C)cc(C)[nH]c2=O)c1C)[C@H]1CC[C@H](N(C)CCOC)CC1 | HCI-017.E2 | 1.65
Cc1cc(Nc2ncnc3ccc(NC4=NC(C)(C)CO4)cc23)ccc1Oc1ccn2ncnc2c1 | HCI-017.E2 | 1.98
COc1cc2c(Oc3ccc4[nH]c(C)cc4c3F)ncnc2cc1OCCCN1CCCC1 | HCI-017.E2 | 2.27
CC[C@H](NC(=O)[C@H](C)NC)C(=O)N1C[C@@H](O)C[C@H]1Cc1c(-c2[nH]c3cc(F)ccc3c2C[C@@H]2C[C@H](O)CN2C(=O)[C@H](CC)NC(=O)[C@H](C)NC)[nH]c2cc(F)ccc12 | HCI-017.E2 | 2.26
CS(=O)(=O)c1ccc(C(=O)Nc2ccc(Cl)c(-c3ccccn3)c2)c(Cl)c1 | HCI-017.E2 | 1.93
CNC(=O)c1cccc(-c2ccc3c(N4CCOC[C@@H]4C)nc(N4CCOC[C@@H]4C)nc3n2)c1 | HCI-017.E2 | 2.17
Cc1nc(-c2cn3c(n2)-c2ccc(-c4cnn(C(C)(C)C(N)=O)c4)cc2OCC3)n(C(C)C)n1 | HCI-017.E2 | 1.78
